Values from paper PMC7222207

PROCEDURE_SUMMARY: Pharmacokinetics study, plasma concentration after intravenous bolus (LC-MS/MS)
Format: in vivo, male Wistar rats
REPORTED_CONDITIONS: male, Wistar; rat, iv bolus 1.00 mg/kg, plasma, mean ± SE n=6
PARAMETER: Cmax (µg/mL)
Write the number in µg/mL without appending the unit.

**Query** // Input: `CC(C)[C@H]1CC[C@H]2[C@@H]3CCC4=C/C(=[N+](\C)[O-])CC[C@]4(C)[C@H]3CC[C@]12C` . Output its Cmax only.
**Result** 1.21

###

PROCEDURE_SUMMARY: Pharmacokinetics study, plasma concentration after intravenous bolus (LC-MS/MS)
Assay type: in vivo, male Wistar rats
REPORTED_CONDITIONS: male, Wistar, plasma; rat, iv bolus 0.25 mg/kg, mean ± SE n=6; read-out: Cl (terminal clearance) (converted)
PARAMETER: clearance (mL/min)
Answer format: numeric, mL/min implied, no suffix.

**Query** Entry CC(C)[C@H]1CC[C@H]2[C@@H]3CCC4=C/C(=[N+](\C)[O-])CC[C@]4(C)[C@H]3CC[C@]12C [ISQ-201] needs its clearance filled in; supply it.
**Result** 0.923

###

PROCEDURE_SUMMARY: Pharmacokinetics study, plasma concentration after intravenous bolus (LC-MS/MS)
Format: in vivo, male Wistar rats
REPORTED_CONDITIONS: male, Wistar; rat, iv bolus 0.25 mg/kg, plasma, mean ± SE n=6
PARAMETER: Cmax (ng/mL)
Note: unit ng/mL is implicit; provide only the numeric part.

**Query** # return recorded Cmax for entry `CC(C)[C@H]1CC[C@H]2[C@@H]3CCC4=C/C(=[N+](\C)[O-])CC[C@]4(C)[C@H]3CC[C@]12C`
**Result** 330

###

PROCEDURE_SUMMARY: Pharmacokinetics study, plasma concentration after intravenous bolus (LC-MS/MS)
Type: in vivo, male Wistar rats
REPORTED_CONDITIONS: male, Wistar, rat, plasma, iv, 0.25 mg/kg, iv bolus 0.25 mg/kg, mean ± SE n=6, read-out: t1/2 (half-life) (converted)
PARAMETER: half-life (h)
Please respond with the number in h and leave the unit unwritten.

**Query** Note half-life for the compound shown: `CC(C)[C@H]1CC[C@H]2[C@@H]3CCC4=C/C(=[N+](\C)[O-])CC[C@]4(C)[C@H]3CC[C@]12C`
**Result** 1.51

###

PROCEDURE_SUMMARY: Pharmacokinetics study, plasma concentration after intravenous bolus (LC-MS/MS)
Type: in vivo, male Wistar rats
REPORTED_CONDITIONS: male, Wistar, plasma; rat, iv bolus 0.07 mg/kg, mean ± SE n=6; read-out: Cl (terminal clearance) (converted)
PARAMETER: clearance (mL/min)
Give just the number in mL/min; leave the unit off.

**Query** Answer with reported clearance of CC(C)[C@H]1CC[C@H]2[C@@H]3CCC4=C/C(=[N+](\C)[O-])CC[C@]4(C)[C@H]3CC[C@]12C [ISQ-201]
**Result** 1.75

###

PROCEDURE_SUMMARY: Pharmacokinetics study, plasma concentration after intravenous bolus (LC-MS/MS)
Type: in vivo, male Wistar rats
REPORTED_CONDITIONS: male, Wistar, plasma; rat, iv bolus 0.25 mg/kg, mean ± SE n=6; read-out: Vd (volume of distribution)
PARAMETER: Vd (L)
Reply numerically in L, unit not repeated.

**Query** Return Vd (reported value) for this molecule: `CC(C)[C@H]1CC[C@H]2[C@@H]3CCC4=C/C(=[N+](\C)[O-])CC[C@]4(C)[C@H]3CC[C@]12C`
**Result** 0.166

###

PROCEDURE_SUMMARY: Pharmacokinetics study, plasma concentration after intravenous bolus (LC-MS/MS)
Type: in vivo, male Wistar rats
REPORTED_CONDITIONS: male, Wistar, plasma; rat, iv bolus 1.00 mg/kg, mean ± SE n=6; read-out: kel (terminal elimination constant) (converted)
PARAMETER: k el (s⁻¹)
Give your result in s⁻¹ as a bare value.

**Query** Answer with the recorded k el of `CC(C)[C@H]1CC[C@H]2[C@@H]3CCC4=C/C(=[N+](\C)[O-])CC[C@]4(C)[C@H]3CC[C@]12C` only.
**Result** 7.94e-05

###

PROCEDURE_SUMMARY: Pharmacokinetics study, plasma concentration after intravenous bolus (LC-MS/MS)
Format: in vivo, male Wistar rats
REPORTED_CONDITIONS: male, Wistar, plasma; rat, iv bolus 1.00 mg/kg, mean ± SE n=6; read-out: Cl (terminal clearance) (converted)
PARAMETER: clearance (mL/min)
Give a bare numeral; the unit mL/min is implied.

**Query** Identify measured clearance associated with `CC(C)[C@H]1CC[C@H]2[C@@H]3CCC4=C/C(=[N+](\C)[O-])CC[C@]4(C)[C@H]3CC[C@]12C`
**Result** 0.895

###

PROCEDURE_SUMMARY: Pharmacokinetics study, plasma concentration after intravenous bolus (LC-MS/MS)
Type: in vivo, male Wistar rats
REPORTED_CONDITIONS: male, Wistar; rat, iv bolus 0.25 mg/kg, plasma, mean ± SE n=6; read-out: C0 (initial concentration)
Procedure: For the study of the variation of the concentration of ISQ-201 in plasma, male Wistar rats (10–12 weeks, Charles River) were randomly divided into three groups (n = 6 per group) and treated intravenously, as a bolus with different concentrations of ISQ-201 (0.07, 0.25, and 1.0 mg/kg, respectively). Plasma samples were taken 0.25, 0.5, 1, 2, 4, and 8 h after the administration and the ISQ-201 concentration was determined by LC–MS/MS analysis. […]
PARAMETER: C0 (ng/mL)
Field format: number, assumed ng/mL, no unit text.

**Query** Report C0 for `CC(C)[C@H]1CC[C@H]2[C@@H]3CCC4=C/C(=[N+](\C)[O-])CC[C@]4(C)[C@H]3CC[C@]12C`
**Result** 490

###

PROCEDURE_SUMMARY: Pharmacokinetics study, plasma concentration after intravenous bolus (LC-MS/MS)
Assay type: in vivo, male Wistar rats
REPORTED_CONDITIONS: male, Wistar, plasma; rat, iv bolus 1.00 mg/kg, mean ± SE n=6; read-out: Vd (volume of distribution)
PARAMETER: Vd
Don't forget the unit after the number, please.

**Query** Fill in reported Vd for this entry: `CC(C)[C@H]1CC[C@H]2[C@@H]3CCC4=C/C(=[N+](\C)[O-])CC[C@]4(C)[C@H]3CC[C@]12C`
**Result** 0.3 L

###

PROCEDURE_SUMMARY: Pharmacokinetics study, plasma concentration after intravenous bolus (LC-MS/MS)
Type: in vivo, male Wistar rats
REPORTED_CONDITIONS: male, Wistar, plasma; rat, iv bolus 0.07 mg/kg, mean ± SE n=6; read-out: Vd (volume of distribution)
PARAMETER: Vd (L)
I only need the number, in L, no unit after it.

**Query** Kindly indicate its recorded Vd. Item: `CC(C)[C@H]1CC[C@H]2[C@@H]3CCC4=C/C(=[N+](\C)[O-])CC[C@]4(C)[C@H]3CC[C@]12C`
**Result** 0.364

###

PROCEDURE_SUMMARY: Pharmacokinetics study, plasma concentration after intravenous bolus (LC-MS/MS)
Type: in vivo, male Wistar rats
REPORTED_CONDITIONS: male, Wistar, rat, plasma, iv, 0.07 mg/kg, iv bolus 0.07 mg/kg, mean ± SE n=6, read-out: t1/2 (half-life) (converted)
PARAMETER: half-life (h)
Report as a plain number; the unit h is understood.

**Query** Report measured half-life; entry is CC(C)[C@H]1CC[C@H]2[C@@H]3CCC4=C/C(=[N+](\C)[O-])CC[C@]4(C)[C@H]3CC[C@]12C [ISQ-201]
**Result** 1.66

###

PROCEDURE_SUMMARY: Pharmacokinetics study, plasma concentration after intravenous bolus (LC-MS/MS)
Type: in vivo, male Wistar rats
REPORTED_CONDITIONS: male, Wistar, plasma; rat, iv bolus 0.25 mg/kg, mean ± SE n=6; read-out: kel (terminal elimination constant) (converted)
PARAMETER: k el (s⁻¹)
Value expressed in s⁻¹; do not type the unit.

**Query** Retrieve k el measured for CC(C)[C@H]1CC[C@H]2[C@@H]3CCC4=C/C(=[N+](\C)[O-])CC[C@]4(C)[C@H]3CC[C@]12C [ISQ-201] and print it.
**Result** 9.53e-05

###

PROCEDURE_SUMMARY: Pharmacokinetics study, plasma concentration after intravenous bolus (LC-MS/MS)
Format: in vivo, male Wistar rats
REPORTED_CONDITIONS: male, Wistar, rat, plasma, iv, 1 mg/kg, iv bolus 1.00 mg/kg, mean ± SE n=6, read-out: t1/2 (half-life) (converted)
PARAMETER: half-life (h)
Dear colleague, please return just the value in h, with no unit written.

**Query** Respond only with half-life recorded for `CC(C)[C@H]1CC[C@H]2[C@@H]3CCC4=C/C(=[N+](\C)[O-])CC[C@]4(C)[C@H]3CC[C@]12C`
**Result** 2.2
